test system: Saccharomyces cerevisiae; test: protein stability index of tFT-peptide fusion (C-terminal peptide) (PSI (0-1 scale)); higher = more stable (slower turnover); conditions: genetic background: cdc53-1; temperature: 37 C;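 note: PSI is a weighted mean of sequencing reads over stability bins, variants kept only with over 10 reads, mCherry proximal and sfGFP distal, peptide attached via GGGS linker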
assayEndpoint: protein stability index
Field format: numeric only.

Use these answered entries as a reference point.
sequenceentry=VCALHSAPLLIF assayendpoint="protein stability index" numericreadout=0.484
sequenceentry=SLASPPPLLILR assayendpoint="protein stability index" numericreadout=0.342
sequenceentry=FRFYCGLVIANV assayendpoint="protein stability index" numericreadout=0.484

Inquiry: Fill in protein stability index for record LPWLLLISFSYR
Reply text: 0.25

====

system: Saccharomyces cerevisiae; assay: protein stability index of tFT-peptide fusion (C-terminal peptide) (PSI (0-1 scale)); higher = more stable (slower turnover); settings: genetic background: wild type; temperature: 30 C
assayEndpoint: protein stability index
Field format: numeric only.

sequenceentry=GRSGSGGTWELG assayendpoint="protein stability index" numericreadout=0.643
sequenceentry=VGTRGARREVQT assayendpoint="protein stability index" numericreadout=0.734
sequenceentry=FFPLPPSSPPSP assayendpoint="protein stability index" numericreadout=0.718
sequenceentry=GVLGGGVFGGSV assayendpoint="protein stability index" numericreadout=0.631
sequenceentry=LAHRASICLARL assayendpoint="protein stability index" numericreadout=0.695

Inquiry: Fill in protein stability index for record PPSPSSLLFLLS
Reply text: 0.704

Inquiry: Fill in protein stability index for record PPPPRAISPLLP
Reply text: 0.666

Inquiry: Fill in protein stability index for record PSLNNTMLKENK
Reply text: 0.62

Inquiry: Fill in protein stability index for record IWAEYIDAVLIN
Reply text: 0.6

Inquiry: Fill in protein stability index for record VGGGRDLFFFKF
Reply text: 0.602
